tested on: EBC-1 cells; test: alamarBlue cell viability; details: Homo sapiens, EBC-1, 72 h, read-out: IC50 values (μM) 72 hours

COMPOUND: O=C1C2=C(CCN(Cc3ccccc3)C2)N2CCN=C2N1Cc1cccc(F)c1
IC50 (µM): 2.5

COMPOUND: Cc1ccccc1CN1C(=O)C2=C(CCN(Cc3ccccc3)C2)N2CCN=C12 [ONC201, reference compound]
IC50 (µM): 5.72

====

experiment: alamarBlue cell viability, healthy cells; conditions: human, NHDF cells

SMILES_RECORD: O=C1C2=C(CCN(Cc3ccccc3)C2)N2CCN=C2N1Cc1cccc(F)c1
viability at 72 h, 0.37 µM, %: 111
